Tested on: VchCAST RNA-guided transposition machinery (E. coli BL21(DE3) host, lacZ target)
test protocol: relative integration efficiency (T-LR orientation) vs wild-type transposon end (log2 (normalized fold change)); transposon end mutated: right end (5 bp flank + 75 bp right end); higher = more efficient transposition
Class 1.0: relative integration efficiency (log2) at least 2. Class 0.0: relative integration efficiency (log2) below 2.

hey, is relative integration efficiency (log2) for this one >= 2? `ACATTTGTTGATACAACCATCAAATGGTAATTACACCCATACATTGATAATTATCACACCCAATTTAACTATAACGCTCTGATCATAGTCAGACCAACATTGCTACGACCCGTATTCGCACCGACAC`
0.0

hey, is relative integration efficiency (log2) for this one >= 2? `ACATTTGTTCATACAACCATAAAACGATAATTACACCCATAAATTCATCATTATCACACCCAATTTAACTATAACGCTCTGATCATAGTCAGACCAACATTGCTACGACCCGTATTCGCACCGACAC`
0.0

hey, is relative integration efficiency (log2) for this one >= 2? `ACATTTGTTGATACAACCATATATTGATATCTCCAACCATAAAATGATAATTATCAGTGGGTATTTAACTATAACGCTCTGATCATAGTCAGACCAACATTGCTACGACCCGTATTCGCACCGACAC`
1.0

hey, is relative integration efficiency (log2) for this one >= 2? `ACATTTGTTGATACAACCATAAAAGGATAATTACCCCCATAAATTGATAATTATCACACCCCATTTAACTATAACGCTCTGATCATAGTCAGACCAACATTGCTACGACCCGTATTCGCACCGACAC`
0.0

hey, is relative integration efficiency (log2) for this one >= 2? `ACATTTGTTGATACAACCATAAAATGATCATTACCCCCATAAATTGATAATTATCCCACCCCATTTAACTATAACGCTCTGATCATAGTCAGACCAACATTGCTACGACCCGTATTCGCACCGACAC`
0.0
